// reported GI50 for each item listed
System: UACC-62
assay.overview: NCI tumour cell line growth inhibition, 48 h
Activity calls are given as the source filed them. Cut-off read from the data, not from the text of the source: active = GI50 up to about 1.1 µM and inactive = higher.

Below, each entry is followed by its recorded GI50 result.
compound=COc1ccc(/C=C/C(=O)Oc2cc(O)cc(O)c2)cc1 value_reported="> 100 µM (inactive)"
compound=O=C1c2ccccc2S(=O)(=O)c2c1cccc2[N+](=O)[O-] value_reported="1.72 µM (inactive)"
compound=COc1cc(Cl)c2c3c(c(C(C)=O)oc13)CCC2 value_reported="> 100 µM (inactive)"

Now look at this entry.
Exam item: Suppose we examine the compound CC(=O)NC1C(Sc2ncn(C3OC(CO)C(O)C(O)C3NC(C)=O)n2)OC(CO)C(O)C1O (configuration not stated) ; what GI50 value has been reported?
Marked response: > 100 µM (inactive)

---

// reported GI50 for each item listed
System: Malme-3M
assay.overview: NCI tumour cell line growth inhibition, 48 h
Active and inactive are the calls of the source. No stated cut-off is given here; in the data, active = GI50 up to about 1.1 µM and inactive = higher. Square brackets hold non-standard residues; d marks the D form. Peptide text beside a SMILES is read from it. * marks the point of attachment. Phe(4-NO2) = N[CH](Cc1ccc([N+](=O)[O-])cc1)C(=O)O; Boc = CC(C)(C)OC(=O)*

compound=COc1ccc(-c2csc3c2-n2cccc2C3=O)cc1 endpoint_label=GI50 value_reported="28.8 µM (inactive)"
compound=CCn1sc2ccccc2c1=O endpoint_label=GI50 value_reported="15.8 µM (inactive)"
compound=CN(C)c1ccc(C(C=C2c3ccccc3Sc3ccccc32)=C(C#N)C#N)cc1 endpoint_label=GI50 value_reported="> 100 µM (inactive)"
compound=CO[C@@]12C[C@@H](CNC(=O)c3cc(Br)c[nH]3)O[C@@H]1NC(=O)N2 endpoint_label=GI50 value_reported="> 100 µM (inactive)"
compound="CNC(=O)CCC(NC(=O)OC(C)(C)C)C(=O)NC(Cc1ccc([N+](=O)[O-])cc1)C(=O)NCC(=O)NC (stereo not given) (Boc-Glu(NHMe)-[Phe(4-NO2)]-Gly-NHMe; configuration not given here)" endpoint_label=GI50 value_reported="> 100 µM (inactive)"

Exam item: Suppose we examine the compound CC1=C(O)C(=O)C2C(=O)C1C(C)C2c1ccc(C)cc1 (stereo not given) ; what GI50 value has been reported?
Marked response: > 100 µM (inactive)

Exam item: Suppose we examine the compound Cc1cc(Cl)ccc1OCC(=O)Oc1c(Cl)c(Cl)c(Cl)c(Cl)c1Cl ; what GI50 value has been reported?
Marked response: 19.2 µM (inactive)

Exam item: Suppose we examine the compound COc1cc2c(cc1O)C(=O)O[C@@H]1CC=C3CCN(C)[C@H]3[C@H]21 ; what GI50 value has been reported?
Marked response: > 25 µM (inactive)

Exam item: Suppose we examine the compound CCOC(=O)C1=C(C)NC(=O)NC1c1ccc(OC)cc1OC (stereo not given) ; what GI50 value has been reported?
Marked response: > 100 µM (inactive)

Exam item: Suppose we examine the compound O=C(O)/C=c1/c2ccccc2n2nc3ccccc3c12 ; what GI50 value has been reported?
Marked response: 25.2 µM (inactive)

---

Tested on: UO-31
assay.overview: NCI tumour cell line growth inhibition, 48 h
Calls of active or inactive are those of the source. Rule as the data show it: active = GI50 up to about 1.1 µM and inactive = higher.
Hi! Could you answer with just one of these? active, inactive

molecule=COc1c2nc(CCl)[nH]c(=O)c2c(OC)c2nc(CCl)[nH]c(=O)c12 group_label=inactive

Exam item: # lookup: test call for COC(=O)C1=C(C(=O)OC)SC(=CC#CC=C2SC(C(=O)OC)=C(C(=O)OC)S2)S1
Marked response: inactive

Exam item: # lookup: test call for CSc1nc(C#N)c(N)n1C
Marked response: inactive

Exam item: # lookup: test call for COc1ccc2c(C(=O)c3c(C)n(CCN4CCOCC4)c4ccccc34)cccc2c1
Marked response: inactive

Exam item: # lookup: test call for N#CC(/C(=N/NC(=O)C(=O)NN)C(=O)NC12CC3CC(CC(C3)C1)C2)c1ccccc1 (stereo unspecified)
Marked response: inactive

Exam item: # lookup: test call for Cc1ccccc1NC(=O)/C(C#N)=N\Nc1[nH]cnc1C(N)=O
Marked response: inactive
